# System: A549
# assay.summary: NCI tumour cell line growth inhibition, 48 h
The source made the active and inactive calls. Cut-off read from the data, not from the text of the source: active = GI50 up to about 1.1 µM and inactive = higher.
Use one of these outcomes when replying: label 1 (active), label 0 (inactive)

compound | subject.of.test | group.label
CC/C=C1\N=C(c2ccc(Cl)cc2)OC1=O | A549 | label 0

Exam item: Query: recorded result category for `Cc1cccc(C)c1NC(=O)/C=C/c1ccccc1` in this test
Marked response: label 0

Exam item: How about CC1=C2CC[C@@]3(C)C(=CCC3O)C2(C)CCC1=O (some centres not stated) ?
Marked response: label 0

---

GI50 reference
# Test system: RPMI-8226
# assay.summary: NCI tumour cell line growth inhibition, 48 h
Activity calls are given as the source filed them. Cut-off read from the data, not from the text of the source: active = GI50 up to about 1.1 µM and inactive = higher.

Past entries and their recorded results:
compound | measure.name | readout.value
O=Cc1c(O)c(C(=O)Nc2ccc3[nH]c(=O)[nH]c3c2)cc2ccccc12 | GI50 | > 100 µM (inactive)
CC(C)CCCCCCCCCCCCC(=O)NCC(=O)NC1C(O)C(O)C(Nc2[nH]cnc3ncnc2-3)OC1C(O)CO (stereo unspecified) | GI50 | 0.000525 µM (active)
CC1=C2CC[C@@]3(C)C(=CCC3O)C2(C)CCC1=O (stereo partly specified) | GI50 | > 100 µM (inactive)
N#CCc1ccccc1/C(C#N)=C1/OC(=N)C(c2ccccc2CC#N)C1=O (stereo unspecified) | GI50 | > 100 µM (inactive)
COc1cc(C2SCC(=O)N2c2ccccc2Cl)cc(OC)c1OC (stereo unspecified) | GI50 | 90.2 µM (inactive)
O=C(/C=C/c1ccccc1Br)c1ccccc1 | GI50 | 3.01 µM (inactive)
O=C1C2=C(c3ccccc31)C(c1ccc(F)cc1)N1C(=O)CCSC1=N2 (stereo unspecified) | GI50 | 49.2 µM (inactive)
CNC(=O)OCc1cc2ccncc2c2c1[nH]c1ccccc12 | GI50 | > 88.3 µM (inactive)
N#CC(C#N)[C@@H]1CCC=C(Sc2ccccc2)[C@H]1Sc1ccccc1 | GI50 | 2.28 µM (inactive)
COc1ccc(-n2nnnc2C2(Nc3ccccc3)CCN(Cc3ccccc3)CC2)cc1 | GI50 | 9.77 µM (inactive)

Next up:
Exam item: Kindly state the measured GI50 obtained for CC(NC1=NCCO1)c1cccs1 (stereo unspecified) with RPMI-8226.
Marked response: 23.7 µM (inactive)
